- assayMethodText: in vitro;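 further: MTT reduction read as absorbance at 595 nm, blank-corrected and expressed as percent growth relative to the time-zero cell reading, triplicate wells per concentration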
- testParameters: human
Bridge positions count the residues as written; N and C are the ends. Square brackets hold non-standard residues; d marks the D form. Peptide text beside a SMILES is read from it. Cit = NC(=O)NCCC[C@H](N)C(=O)O
assayMetric: GI50 at 48 h (µM)
# number only, unit µM dropped from output

Which GI50 at 48 h reading was recorded for the compound N=C(N)NCCC[C@@H]1NC(=O)[C@@H]2CSSC[C@H](NC(=O)[C@H](Cc3c[nH]c4ccccc34)NC(=O)[C@H](CCCNC(=N)N)NC(=O)[C@H](Cc3c[nH]cn3)NC(=O)[C@H]3CCCN3C(=O)CNC1=O)C(=O)N[C@@H](Cc1ccc(O)cc1)C(=O)N[C@@H](CCCNC(N)=O)C(=O)N[C@@H](CCCCN)C(=O)N1CCC[C@@H]1C(=O)N1CCC[C@H]1C(=O)N[C@@H](Cc1ccc(O)cc1)C(=O)N[C@@H](CCCNC(=N)N)C(=O)N[C@@H](CCCNC(N)=O)C(=O)N2 [Ex. 137] (cyclo(YR[Cit]CRG[dP]HRWCY[Cit]K[dP]P); disulfide 4-11) ?
79

Ref: patent US8895695B2
